system: KKAy mice; assay: Blood sugar- and lipid-lowering activity in mice (test compound 0.005% in diet, 4 days); type: in vivo; conditions: Mus musculus, feed or water, 96 h, 0.005% in powder diet, male KKAy mice, enzyme method (Cleantech TG-S Kit), read-out: Hypolipemic activity (rate of lowering of plasma triglyceride from control group)
# binarize inhibition in vivo at 0.005 %, 0.005 % in diet: threshold 40% inclusive, high side 1.0, low side 0.0

Example cases with answers are listed next.
molecule="O=C1NC(=O)C(Cc2ccc(OCC(O)c3ccccn3)cc2)S1 (centres unmarked) [Example 8]" classassignment=1.0
molecule="Cc1ccc(C(O)COc2ccc(CC3SC(=O)NC3=O)cc2)nc1 (centres unmarked) [Example 9]" classassignment=0.0
molecule="Cc1cc(C)nc(C(O)COc2ccc(CC3SC(=O)NC3=O)cc2)c1 (centres unmarked) [Example 10]" classassignment=1.0
molecule="CCc1ccc(C(CO)COc2ccc(CC3SC(=O)NC3=O)cc2)nc1 (centres unmarked) [Example 4]" classassignment=0.0

Check the entry Cc1cccnc1C(O)COc1ccc(CC2SC(=O)NC2=O)cc1 (centres unmarked) [Example 7] : does inhibition in vivo at 0.005 %, 0.005 % in diet equal or exceed 40%?
1.0

====

tested on: KKAy mice; experiment: Blood sugar- and lipid-lowering activity in mice (test compound 0.005% in diet, 4 days); assay type: in vivo; details: Mus musculus, feed or water, 96 h, 0.005% in powder diet, male KKAy mice, glucose oxidase method, read-out: Hypoglycemic activity (rate of lowering of blood sugar from control group)
measuredMetric: inhibition in vivo at 0.005 %, 0.005 % in diet (%)
Please reply with the bare figure in % and do not write the unit itself.

compound="Cc1ccc(C(O)COc2ccc(CC3SC(=O)NC3=O)cc2)nc1 (centres unmarked)" subjectoftest="KKAy mice" recordednumber=35
compound="CCc1ccc(C(O)COc2ccc(CC3SC(=O)NC3=O)cc2)nc1 (centres unmarked)" subjectoftest="KKAy mice" recordednumber=32
compound="Cc1cccnc1C(O)COc1ccc(CC2SC(=O)NC2=O)cc1 (centres unmarked)" subjectoftest="KKAy mice" recordednumber=53
compound="Cc1cc(C)nc(C(O)COc2ccc(CC3SC(=O)NC3=O)cc2)c1 (centres unmarked)" subjectoftest="KKAy mice" recordednumber=40
compound="CCc1ccc(C(CO)COc2ccc(CC3SC(=O)NC3=O)cc2)nc1 (centres unmarked)" subjectoftest="KKAy mice" recordednumber=45
compound="Cc1cccnc1C(CO)COc1ccc(CC2SC(=O)NC2=O)cc1 (centres unmarked)" subjectoftest="KKAy mice" recordednumber=22
compound="Cc1cccc(C(O)COc2ccc(CC3SC(=O)NC3=O)cc2)n1 (centres unmarked)" subjectoftest="KKAy mice" recordednumber=45

// next entry
// field: inhibition in vivo at 0.005 %, 0.005 % in diet; key: O=C1NC(=O)C(Cc2ccc(OCC(O)c3ccccn3)cc2)S1 (centres unmarked) ; value = 47

====

test system: KKAy mice; assay: Blood sugar- and lipid-lowering activity in mice (test compound 0.005% in diet, 4 days); type: in vivo; details: Mus musculus, feed or water, 96 h, 0.005% in powder diet, male KKAy mice, enzyme method (Cleantech TG-S Kit), read-out: Hypolipemic activity (rate of lowering of plasma triglyceride from control group)
inhibition in vivo at 0.005 %, 0.005 % in diet overview

Examples with answers:
molecule="Cc1cccc(C(O)COc2ccc(CC3SC(=O)NC3=O)cc2)n1 (stereo not drawn)" result=47%
molecule="Cc1cccnc1C(CO)COc1ccc(CC2SC(=O)NC2=O)cc1 (stereo not drawn)" result=11%

// field: inhibition in vivo at 0.005 %, 0.005 % in diet; key: CCc1ccc(C(O)COc2ccc(CC3SC(=O)NC3=O)cc2)nc1 (stereo not drawn) ; value = 35%
